- System: 636577-100-R-J1-PDC complex spheroid viability;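 note: luminescence signal used as a proxy for viable cells; viability read after seven days of drug exposure; 100% = DMSO vehicle control wells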
- test.summary: Anticancer human tumor 636577-100-R-J1-PDC patient-derived endometrial adenocarcinoma cell line growth inhibition [GQUAD]
- measurement.conditions: second compound 10 µM; first compound 0.316 µM; active compounds read low
assay.endpoint: viability, T/C (%)

INSERT INTO assay_data (compound, measured_on, assay_endpoint, unit_symbol, observed_result) VALUES
  ('CC1COCCN1c1cc(C2(S(C)(=N)=O)CC2)nc(-c2ccnc3[nH]ccc23)n1 (stereo not given) + CN(C)c1ccc(Nc2c3ccc(NC(=O)CCN4CCCC4)cc3nc3cc(NC(=O)CCN4CCCC4)ccc23)cc1', '636577-100-R-J1-PDC complex spheroid viability', 'viability, T/C', '%', 5.26),
  ('COc1ccc([C@@H](O)c2cc(-c3ncnc4cc(N5CCOCC5)ccc34)c(F)cc2Cl)nn1 + CN(C)c1ccc(Nc2c3ccc(NC(=O)CCN4CCCC4)cc3nc3cc(NC(=O)CCN4CCCC4)ccc23)cc1', '636577-100-R-J1-PDC complex spheroid viability', 'viability, T/C', '%', 3.18),
  ('CC1COCCN1c1cc(-c2ccnn2C)c2ccnc(-c3ccn[nH]3)c2n1 (stereo not given) + CN(C)c1ccc(Nc2c3ccc(NC(=O)CCN4CCCC4)cc3nc3cc(NC(=O)CCN4CCCC4)ccc23)cc1', '636577-100-R-J1-PDC complex spheroid viability', 'viability, T/C', '%', 2.72),
  ('C=CCn1c(=O)c2cnc(Nc3ccc(N4CCN(C)CC4)cc3)nc2n1-c1cccc(C(C)(C)O)n1 + Cc1[nH]c2ccc(F)cc2c1-c1nc2c3cccnc3c3ncccc3c2[nH]1', '636577-100-R-J1-PDC complex spheroid viability', 'viability, T/C', '%', 29.3),
  ('CCc1c2c(nc3ccc(O)cc13)-c1cc3c(c(=O)n1C2)COC(=O)[C@]3(O)CC + CN(C)c1ccc(Nc2c3ccc(NC(=O)CCN4CCCC4)cc3nc3cc(NC(=O)CCN4CCCC4)ccc23)cc1', '636577-100-R-J1-PDC complex spheroid viability', 'viability, T/C', '%', 2.29),
  ('CCCS(=O)(=O)Nc1ccc(F)c(C(=O)c2c[nH]c3ncc(-c4ccc(Cl)cc4)cc23)c1F + Cc1cnc(CNC(=O)c2c(=O)c3ccc(N4CCCN(C)CC4)nc3n3c2sc2ccccc23)cn1', '636577-100-R-J1-PDC complex spheroid viability', 'viability, T/C', '%', 18.5),
  ('COc1ccc([C@@H](O)c2cc(-c3ncnc4cc(N5CCOCC5)ccc34)c(F)cc2Cl)nn1 + Cc1[nH]c2ccc(F)cc2c1-c1nc2c3cccnc3c3ncccc3c2[nH]1', '636577-100-R-J1-PDC complex spheroid viability', 'viability, T/C', '%', 64.2),
  ('Cc1[nH]c2ccccc2c1CCNCc1ccc(/C=C/C(=O)NO)cc1 + Cc1cnc(CNC(=O)c2c(=O)c3ccc(N4CCCN(C)CC4)nc3n3c2sc2ccccc23)cn1', '636577-100-R-J1-PDC complex spheroid viability', 'viability, T/C', '%', 0.15),
  ('Cn1ncnc1[C@H]1c2n[nH]c(=O)c3cc(F)cc(c23)N[C@@H]1c1ccc(F)cc1 + CN(C)c1ccc(Nc2c3ccc(NC(=O)CCN4CCCC4)cc3nc3cc(NC(=O)CCN4CCCC4)ccc23)cc1', '636577-100-R-J1-PDC complex spheroid viability', 'viability, T/C', '%', 4.9),
  ('C#Cc1c(F)ccc2cc(O)cc(-c3ncc4c(N5CC6CCC(C5)N6)nc(OCC56CCCN5CC(F)C6)nc4c3F)c12 (stereo not given) + CN(C)c1ccc(Nc2c3ccc(NC(=O)CCN4CCCC4)cc3nc3cc(NC(=O)CCN4CCCC4)ccc23)cc1', '636577-100-R-J1-PDC complex spheroid viability', 'viability, T/C', '%', 4.89);

Data provenance is PubChem BioAssay AID2060504.
